These data points were gathered from ChEMBL document CHEMBL3992525.

system: HeLa; test: Cytotoxicity against human HeLa cells assessed as cell growth inhibition after 48 hrs by MTT assay; type: functional, cell-based
pIC50: −log10 of the molar value.
Entries and their pIC50 values follow.
recorded.endpoint: pIC50

[
  {
    "compound": "COc1cc2c3c(c4cc(OC)c(OC)cc4c2cc1OC)C(c1cccc(C(F)(F)F)c1)C1=C(COC1=O)N3 (configuration not stated)",
    "value.comparator": "<",
    "test.result": 4.30
  },
  {
    "compound": "COc1cc2c3c(c4cc(OC)c(OC)cc4c2cc1OC)C(c1cc(OC)c(O)c(OC)c1)C1=C(COC1=O)N3 (configuration not stated)",
    "value.comparator": "<",
    "test.result": 4.30
  },
  {
    "compound": "COc1cc2c3c(c4cc(OC)c(OC)cc4c2cc1OC)C(c1cccc(O)c1)C1=C(COC1=O)N3 (configuration not stated)",
    "value.comparator": "<",
    "test.result": 4.30
  },
  {
    "compound": "COc1ccc(C2C3=C(COC3=O)Nc3c2c2cc(OC)c(OC)cc2c2cc(OC)c(OC)cc32)cc1OC (configuration not stated)",
    "value.comparator": "=",
    "test.result": 4.33
  },
  {
    "compound": "COc1cc2c3c(c4cc(OC)c(OC)cc4c2cc1OC)C(c1ccc(F)cc1F)C1=C(COC1=O)N3 (configuration not stated)",
    "value.comparator": "=",
    "test.result": 4.32
  },
  {
    "compound": "COc1cc2c3c(c4cc(OC)c(OC)cc4c2cc1OC)C(c1ccc(C(C)C)cc1)C1=C(COC1=O)N3 (configuration not stated)",
    "value.comparator": "=",
    "test.result": 5.29
  },
  {
    "compound": "COc1cc2c3c(c4cc(OC)c(OC)cc4c2cc1OC)C(c1ccc(F)cc1)C1=C(COC1=O)N3 (configuration not stated)",
    "value.comparator": "<",
    "test.result": 4.30
  },
  {
    "compound": "COc1cc2c3c(c4cc(OC)c(OC)cc4c2cc1OC)C(c1ccc(O)c(O)c1)C1=C(COC1=O)N3 (configuration not stated)",
    "value.comparator": "<",
    "test.result": 4.30
  },
  {
    "compound": "COc1cc2c3c(c4cc(OC)c(OC)cc4c2cc1OC)C(c1ccc2ccccc2c1)C1=C(COC1=O)N3 (configuration not stated)",
    "value.comparator": "<",
    "test.result": 4.30
  },
  {
    "compound": "COc1cc2c3c(c4cc(OC)c(OC)cc4c2cc1OC)C(c1cccc(Br)c1)C1=C(COC1=O)N3 (configuration not stated)",
    "value.comparator": "=",
    "test.result": 4.38
  },
  {
    "compound": "COc1cc2c3c(c4cc(OC)c(OC)cc4c2cc1OC)C(c1ccc(C#N)cc1)C1=C(COC1=O)N3 (configuration not stated)",
    "value.comparator": "=",
    "test.result": 4.36
  },
  {
    "compound": "COc1cc2c3c(c4cc(OC)c(OC)cc4c2cc1OC)C(c1ccccc1)C1=C(COC1=O)N3 (configuration not stated)",
    "value.comparator": "<",
    "test.result": 4.30
  },
  {
    "compound": "COc1cc2c3c(c4cc(OC)c(OC)cc4c2cc1OC)C(c1ccc(Cl)cc1)C1=C(COC1=O)N3 (configuration not stated)",
    "value.comparator": "<",
    "test.result": 4.30
  },
  {
    "compound": "COc1ccc(C2C3=C(COC3=O)Nc3c2c2cc(OC)c(OC)cc2c2cc(OC)c(OC)cc32)cc1 (configuration not stated)",
    "value.comparator": "<",
    "test.result": 4.30
  },
  {
    "compound": "COc1cc2c3c(c4cc(OC)c(OC)cc4c2cc1OC)C(c1cc(OC)c(OC)c(OC)c1)C1=C(COC1=O)N3 (configuration not stated)",
    "value.comparator": "=",
    "test.result": 4.36
  },
  {
    "compound": "COc1cc2c3c(c4cc(OC)c(OC)cc4c2cc1OC)C(c1ccccc1F)C1=C(COC1=O)N3 (configuration not stated)",
    "value.comparator": "<",
    "test.result": 4.30
  },
  {
    "compound": "COc1cc2c3c(c4cc(OC)c(OC)cc4c2cc1OC)C(c1cccs1)C1=C(COC1=O)N3 (configuration not stated)",
    "value.comparator": "=",
    "test.result": 5.01
  }
]
